Provenance of the data: ChEMBL document CHEMBL1201862

# Tested on: SF-539
# assay-notes: NCI tumour cell line growth inhibition, 48 h
Activity calls are given as the source filed them. No stated cut-off is given here; in the data, active = GI50 up to about 1.1 µM and inactive = higher.
readout-type: GI50

input: So what GI50 did Nc1nc(N)c(C2=CCNCC2)c(=O)[nH]1 get with SF-539?
output: > 100 µM (inactive)

input: So what GI50 did CN(C)c1nc(N(C)C)nc(N(C)CN(C)c2ccc(Cl)cc2)n1 get with SF-539?
output: > 100 µM (inactive)

input: So what GI50 did CCCNC(=O)c1cc(OC)c(OC)cc1NC(=O)C12CC3CC(CC(C3)C1)C2 get with SF-539?
output: 22.2 µM (inactive)

input: So what GI50 did CC1=C(C)CC2(CCCCC2=O)[S+]([O-])C1 (stereo unspecified) get with SF-539?
output: > 100 µM (inactive)

input: So what GI50 did OC1(c2ccccc2)CSC2=Nc3ccccc3C3CCN1N23 (stereo unspecified) get with SF-539?
output: 16.9 µM (inactive)

Okay, next one:
input: So what GI50 did C(#CP(c1ccccc1)c1ccccc1)P(C#CP(c1ccccc1)c1ccccc1)c1ccccc1 get with SF-539?
output: > 100 µM (inactive)

---

# System: IGROV-1
# assay-notes: NCI tumour cell line growth inhibition, 48 h
Active and inactive are the calls of the source. No stated cut-off is given here; in the data, active = GI50 up to about 1.1 µM and inactive = higher.
readout-type: GI50

Please review the entries below; each comes with its answer.
input: State the recorded GI50 for this entry: ClCCCN(CCCCl)c1ccc(/C=N/c2cccc(Cl)c2)cc1
output: 29.8 µM (inactive)

input: State the recorded GI50 for this entry: COc1ccc(C(C)NNC(=O)c2ccncc2)cc1F (centres undefined)
output: > 100 µM (inactive)

input: State the recorded GI50 for this entry: CC(C)CC(=O)CC(C)[C@]1(CCCOCc2ccccc2)C(=O)N2CCC3(C[C@@]24CCC[C@H]41)OCCO3 (some centres undefined)
output: > 10 µM (inactive)

input: State the recorded GI50 for this entry: CC1OC2OC3C(OCC(O)C3O)OC(=O)[C@]34CCC(C)(C)CC3C3=CCC5[C@@]6(C)C[C@H](O)[C@H](OC7OC(CO)C(O)C(O)C7OC7OCC(OC(=O)CC(C)(O)CC(=O)OC1C(O)C2O)C(O)C7O)[C@@](C)(CO)C6CC[C@@]5(C)[C@]3(C)CC4 (some centres undefined)
output: 5.71 µM (inactive)

input: State the recorded GI50 for this entry: COc1ccc(/C=N/n2cnc3c(c2=O)S/C(=C2/SC(=S)N(c4ccc(C)cc4)C2=O)N3c2ccccc2)cc1
output: 42.7 µM (inactive)

Further cases:
input: State the recorded GI50 for this entry: CC(C)Oc1c(O)c2c3c(oc(=O)n3C=CC2c2ccccc2)c1OC(C)C (centres undefined)
output: 21.9 µM (inactive)

input: State the recorded GI50 for this entry: COc1ccc(CC2COc3cc(OC)cc(OC)c3C2=O)cc1 (centres undefined)
output: 28.7 µM (inactive)

input: State the recorded GI50 for this entry: O=C(O)c1ccccc1-c1ccccc1C(=O)Nc1ccc2c(c1)Cc1ccccc1-2
output: 49.3 µM (inactive)

input: State the recorded GI50 for this entry: COC(=O)CCCC(=O)C1=NN(c2ccc(Cl)cc2)Cc2ccccc2N1
output: > 100 µM (inactive)

---

# System: MDA-MB-231
# assay-notes: NCI tumour cell line growth inhibition, 48 h
Activity calls are given as the source filed them. No stated cut-off is given here; in the data, active = GI50 up to about 1.1 µM and inactive = higher.
readout-type: GI50

input: State the recorded GI50 for this entry: CC1=C(c2ccccc2)NC(=S)C(C)C(c2ccccc2)=N1 (stereo not given)
output: > 100 µM (inactive)
